Biological target: Peptide 1: Biotin-…-[Tyr(PC)]-acid
Sequence (peptide, as listed by the source): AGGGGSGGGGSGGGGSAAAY
Assay: scFv ELISA
PARAMETER MEASURED: OD450 (OD450)
Express your answer in OD450, writing the number without its unit.

Some solved cases for reference:
INSERT INTO results (binder, value_reported) VALUES
  ('PcOxP_DB02_A09 (scFv, V domains shown, scFv in periplasmic extract) VH: EVQLLESGGGLVQPGGSLRLSCAASGFTFSDTYMEWVRQAPGKGLEWVAASRNKANDYTTEYADSVKGRFTISRDNSKNTLYLQMNSLRAEDTAVYYCARDYYGSSYWYFDVWGQGTLVTVSS VL: DIQMTQSPSSLSASVGDRVTITCTASESLYSSKHKVHYLAWYQQKPGKAPKLLIYGASNRQSGVPSRFSGSGSGTDFTLTISSLQPEDFATYYCAQFYWYPLTFGGGTKVEIK', 0.98),
  ('PcOxP_DB02_H07 (scFv, V domains shown, scFv in periplasmic extract) VH: EVQLLESGGGLVQPGGSLRLSCAASGFTFSSYYMEWVRQAPGKGLEWVAASRNKANDYTTEYADSVKGRFTISRDNSKNTLYLQMNSLRAEDTAVYYCARDYYGSSYWYFDVWGQGTLVTVSS VL: DIVMTQSPDSLAVSLGERATINCTASESLYSSKHKVHYLAWYQQKPGQPPKLLIYGASNRYNGVPDRFSGSGSGTDFTLTISSLQAEDVAVYYCAQFYTYPLTFGGGTKVEIK', 0.56),
  ('PcOxP_DB02_E12 (scFv, V domains shown, scFv in periplasmic extract) VH: EVQLLESGGGLVQPGGSLRLSCAASGFGFSDFYMEWVRQAPGKGLEWVAASRNKANDYTTEYADSVKGRFTISRDNSKNTLYLQMNSLRAEDTAVYYCARDYYGSSYWYFDVWGQGTLVTVSS VL: DIVMTQSPDSLAVSLGERATINCTASESLYSSKHKVHYLAWYQQKPGQPPKLLIYGASNRYIGVPDRFSGSGSGTDFTLTISSLQAEDVAVYYCAEFYSYPLTFGGGTKVEIK', 0.26),
  ('PcOxP_DB02_E11 (scFv, V domains shown, scFv in periplasmic extract) VH: EVQLLESGGGLVQPGGSLRLSCAASGFTFSDQYMEWVRQAPGKGLEWVAASRNKANDYTVEYADSVKGRFTISRDNSKNTLYLQMNSLRAEDTAVYYCARDYYGSSYWYFDVWGQGTLVTVSS VL: DIVMTQSPDSLAVSLGERATINCKSSESLLYSKNNKNYLAWYQQKPGQPPKLLIYGASNRYSGVPDRFSGSGSGTDFTLTISSLQAEDVAVYYCAQFYSYPLTFGGGTKVEIK', 0.23);

With those in mind, consider the next binder.
Incoming: Given the binder PcOxP_DB02_G09 (scFv, V domains shown, scFv in periplasmic extract) VH: EVQLLESGGGLVQPGGSLRLSCAASGFTFSDQYMEWVRQAPGKGLEWVAASRNKANDYTTEYADSVKGRFTISRDNSKNTLYLQMNSLRAEDTAVYYCARDYYGSSYWYFDVWGQGTLVTVSS VL: DIQMTQSPSSLSASVGDRVTITCTASESLYSSKHKVHYLAWYQQKPGKAPKLLIYGASNRPIGVPSRFSGSGSGTDFTLTISSLQPEDFATYYCAQFYSYPLTFGGGTKVEIK , write its reported OD450.
Outgoing: 0.35
